Cited source: the supplement of paper PMC9112550

Test system: Escherichia coli TOP10;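 note: peptides expressed intracellularly from a pBAD plasmid library in pooled LB shake-flask culture, induced with 0.3% L-arabinose, DNA abundance read by NGS, three biological replicates, DESeq2 with apeglm shrinkage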
METHOD SUMMARY: shrunken log2 fold change of peptide-encoding DNA abundance (4.5 h post-induction vs induction); higher = less antimicrobial activity (less host growth inhibition)
ASSAY CONTEXT: time post-induction: 4.5 h; library: site-saturation at positions 5, 18, 19, 20
The sequences listed here are annotated with their shrunken log2 fold change.
PROPERTY LABEL: shrunken log2 fold change

[
  {
    "ITEM SEQUENCE": "RRIRNRPPRLPRPRPRPDPKPRP",
    "RECORDED MEASUREMENT": -0.00647
  },
  {
    "ITEM SEQUENCE": "RRIRRRPPRLPRPRPRPDGSPRP",
    "RECORDED MEASUREMENT": 0.0601
  },
  {
    "ITEM SEQUENCE": "RRIRMRPPRLPRPRPRPTMKPRP",
    "RECORDED MEASUREMENT": 0.482
  },
  {
    "ITEM SEQUENCE": "RRIRSRPPRLPRPRPRPLSFPRP",
    "RECORDED MEASUREMENT": -0.24
  },
  {
    "ITEM SEQUENCE": "RRIRNRPPRLPRPRPRPGWPPRP",
    "RECORDED MEASUREMENT": 0.541
  },
  {
    "ITEM SEQUENCE": "RRIRVRPPRLPRPRPRPYLFPRP",
    "RECORDED MEASUREMENT": 0.0655
  },
  {
    "ITEM SEQUENCE": "RRIRRRPPRLPRPRPRPNVMPRP",
    "RECORDED MEASUREMENT": -0.149
  },
  {
    "ITEM SEQUENCE": "RRIRFRPPRLPRPRPRPNMSPRP",
    "RECORDED MEASUREMENT": -0.54
  },
  {
    "ITEM SEQUENCE": "RRIRTRPPRLPRPRPRPQLIPRP",
    "RECORDED MEASUREMENT": -0.222
  },
  {
    "ITEM SEQUENCE": "RRIRQRPPRLPRPRPRPRTQPRP",
    "RECORDED MEASUREMENT": 0.0198
  },
  {
    "ITEM SEQUENCE": "RRIRHRPPRLPRPRPRPSFQPRP",
    "RECORDED MEASUREMENT": -0.652
  },
  {
    "ITEM SEQUENCE": "RRIRTRPPRLPRPRPRPEFHPRP",
    "RECORDED MEASUREMENT": -0.351
  },
  {
    "ITEM SEQUENCE": "RRIRMRPPRLPRPRPRPQKMPRP",
    "RECORDED MEASUREMENT": 0.0453
  },
  {
    "ITEM SEQUENCE": "RRIRCRPPRLPRPRPRPMMGPRP",
    "RECORDED MEASUREMENT": 0.0355
  },
  {
    "ITEM SEQUENCE": "RRIRERPPRLPRPRPRPEKNPRP",
    "RECORDED MEASUREMENT": -0.126
  }
]
